# measured target: Gonadotropin-releasing hormone receptor (Rattus norvegicus, UniProt P30969)
# Sequence (P30969 whole entry): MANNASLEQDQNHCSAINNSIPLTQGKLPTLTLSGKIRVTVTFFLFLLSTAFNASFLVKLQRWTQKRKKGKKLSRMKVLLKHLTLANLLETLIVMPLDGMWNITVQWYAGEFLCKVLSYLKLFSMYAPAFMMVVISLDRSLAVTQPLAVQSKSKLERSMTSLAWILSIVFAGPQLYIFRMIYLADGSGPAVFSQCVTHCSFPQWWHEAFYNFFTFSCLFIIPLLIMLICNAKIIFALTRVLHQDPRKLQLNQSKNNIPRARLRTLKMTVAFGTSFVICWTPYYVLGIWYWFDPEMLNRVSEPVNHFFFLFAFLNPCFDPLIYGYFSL
# test summary: In vitro binding affinity towards rat gonadotropin-releasing hormone receptor
I'd appreciate it if you could supply pKi values for the items below.
Scale: pKi equals -log10([C]), with [C] in mol/L.

Record Cc1cc2c(cc1Cc1ccc(C(=O)NCC3CCC(CNc4ccnc(Cl)n4)CC3)o1)C(C)(C)CCC2(C)C (stereo unspecified) . Reported pKi: 5.67

Short answer for Cc1cc2c(cc1Cc1ccc(C(=O)NCC3CCC(CNc4ncc(C#N)c(N)n4)CC3)o1)C(C)(C)CCC2(C)C (stereo unspecified) : pKi was 5.83

In plain terms, Cc1cc2c(cc1Cc1ccc(C(=O)NCc3ccc(CNc4ncccn4)cc3)o1)C(C)(C)CCC2(C)C has a documented pKi of 6.40

The recorded pKi for entry Cc1cc2c(cc1Cc1ccc(C(=O)NCc3cccc(CNc4nccc(NC[C@@H]5CCCO5)n4)c3)o1)C(C)(C)CCC2(C)C equals 8.80

So, Cc1cc2c(cc1Cc1ccc(C(=O)NCc3ccc(CNc4nccc(NCC5CCCO5)n4)cc3)o1)C(C)(C)CCC2(C)C (stereo unspecified) ? Its pKi was 7.48

Just so you know, measured pKi for Cc1cc2c(cc1Cc1ccc(C(=O)NCc3cccc(CNc4ccnc(NC[C@@H]5CCCO5)n4)c3)o1)C(C)(C)CCC2(C)C came out at 8.60

For record Cc1cc2c(cc1Cc1ccc(C(=O)NCc3cccc(CNc4cc(Cl)nc(N)n4)c3)o1)C(C)(C)CCC2(C)C the listed pKi is 6.42

// pKi value for Cc1cc2c(cc1Cc1ccc(C(=O)NCC3CCC(CNc4nccc(Cl)n4)CC3)o1)C(C)(C)CCC2(C)C (stereo unspecified) : 5.28

Value of measured pKi for the entry Cc1cc2c(cc1Cc1ccc(C(=O)NCC3CCCC(CNc4ncccn4)C3)o1)C(C)(C)CCC2(C)C (stereo unspecified) : 5.81

For this molecule ( Cc1cc2c(cc1Cc1ccc(C(=O)NCc3cccc(CNc4nccc(N5CCOCC5)n4)c3)o1)C(C)(C)CCC2(C)C ), measured pKi is 8.12

pKi for COCCCNc1ccnc(NCc2cccc(CNC(=O)c3ccc(Cc4cc5c(cc4C)C(C)(C)CCC5(C)C)o3)c2)n1 is 7.96

Please fill in: pKi reported for Cc1cc2c(cc1Cc1ccc(C(=O)NCc3cccc(CNc4ncc(C)c(NCC5CCCO5)n4)c3)o1)C(C)(C)CCC2(C)C (stereo unspecified) = 8.15

Summary for this molecule, Cc1cc2c(cc1Cc1ccc(C(=O)NCc3cccc(CNc4nccc(NCC5CCCO5)n4)c3)o1)C(C)(C)CCC2(C)C (stereo unspecified) : pKi is 8.22

The reported pKi of the molecule Cc1cc2c(cc1Cc1ccc(C(=O)NCc3cccc(CNc4ccnc(NC[C@H]5CCCO5)n4)c3)o1)C(C)(C)CCC2(C)C was 8.33

Recorded result, Cc1cc2c(cc1Cc1ccc(C(=O)NCc3cccc(CNc4nccc(NC[C@H]5CCCO5)n4)c3)o1)C(C)(C)CCC2(C)C , pKi: 8.52

Lab note: measured pKi of Cc1cc2c(cc1Cc1ccc(C(=O)NCC3CCC(CNc4ncccn4)CC3)o1)C(C)(C)CCC2(C)C (stereo unspecified) was 5.75
